Assay: solvent given as SMILES
Conditions: in OCC(O)CO
QUANTITY KIND: absorption maximum
# output: number + unit

// known answers, use as guide
Output absorption maximum of `C[n+]1ccc(/C=C/c2ccc(N(c3ccccc3)c3ccc(/C=C/c4cc[n+](C)cn4)cc3)cc2)nc1`
560 nm

Output absorption maximum of `COc1cc(/C=C2/SC(=O)NC2=O)cc(OC)c1O`
364 nm

Output absorption maximum of `COc1cc(/C=C2/SC(=O)NC2=O)ccc1O`
367 nm

Proceeding to the next molecule to report its absorption maximum.
Output absorption maximum of `CCN(CC)c1ccc2c(C)cc(=O)oc2c1`
384 nm
